B1: ADAMTS4 (parent)
chain: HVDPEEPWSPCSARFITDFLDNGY

# Variants of: B1
# protocol summary: protein stability index of a GFP-peptide fusion (GPS, HEK-293T) (PSI 1-6); higher = more stable;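 further: lentivirally expressed fusions sorted by FACS into six bins by GFP to DsRed ratio, PSI derived from sequencing read proportions per bin multiplied by bin number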
# stated conditions: c terminus: a fixed tail appended
# protein stability index per record follows
The answer should be written as a number, with no unit following it.

These recorded examples may help you get a feel for the data.
# variant id, recorded measurement
data = [
    ("S9K", 1.97),
    ("F19E", 1.96),
]

Moving on to the next variant.
Incoming: protein stability index lookup needed for G23E , thanks.
Outgoing: 1.96
